Recorded values, source ChEMBL document CHEMBL5058577.

Tested on: U2OS
Test: Multiplex assay against U2OS
Format: toxicity, cell-based
Details: human, 12 h, 10 µM, compound concentration 10 uM, replicate 1
Kindly supply the reported Population Hoechst High Intensity Objects (%) values for the records listed here.
Answers are plain numbers, in %.

# compound, target_entity, observed_result
rows = [
    ("Cc1onc(-c2ccccc2Cl)c1C(=O)N(C)c1ccc(Cl)cc1", "U2OS", 4),
    ("COC[C@@H](c1ccc(C(F)(F)F)cc1)N1CCN(C2(C)CCN(C(=O)c3c(C)ncnc3C)CC2)C[C@@H]1C.O=C(O)/C=C\\C(=O)O [VICRIVIROC MALEATE]", "U2OS", 1),
    ("Cc1noc(-c2ccc(-c3ccc(CC(=O)O)cc3)cc2)c1NC(=O)O[C@H](C)c1ccccc1Cl", "U2OS", 2),
    ("CN1CCN(c2cc(-c3ccccc3)nc(N)n2)CC1", "U2OS", 0),
    ("NCCc1cn(S(=O)(=O)c2c(Cl)nc3sccn23)c2ccccc12.O=C(O)C(=O)O", "U2OS", 5),
]

Continue with the compound presented below.
The reported Population Hoechst High Intensity Objects (%) of the compound CCCCC1=NC2(CCCC2)C(=O)N1Cc1ccc(-c2ccccc2-c2nnn[nH]2)cc1 was 2

---

Kindly supply the reported Population Normal (%) values for the records listed here.
Tested on: U2OS
Assay: Multiplex assay against U2OS
Type: toxicity, cell-based
Conditions: human, 12 h, 1 µM, compound concentration 1 uM, replicate 1
Give bare numbers, in %.

Answered examples (8):
# compound, property_name, observed_result
measured = [
    ("Cl.N=C(N)NC(=O)Cc1c(Cl)cccc1Cl [GUANFACINE HYDROCHLORIDE]", "Population Normal (%)", 95),
    ("N#Cc1cc(F)cc(-c2nc(-c3ccc(F)cn3)no2)c1", "Population Normal (%)", 98),
    ("Cc1sc2c(c1C)C(c1ccc(Cl)cc1)=N[C@@H](CC(=O)NCCCCCCCCNC(=O)COc1cccc3c1C(=O)N(C1CCC(=O)NC1=O)C3=O)c1nnc(C)n1-2 (stereo not given in full)", "Population Normal (%)", 88),
    ("NCCc1cn(S(=O)(=O)c2c(Cl)nc3sccn23)c2ccccc12.O=C(O)C(=O)O", "Population Normal (%)", 98),
    ("O=C(NCCN1CCC(n2c(=O)[nH]c3cc(Cl)ccc32)CC1)c1ccc(F)cc1 [HALOPEMIDE]", "Population Normal (%)", 98),
    ("CN(C)C(=O)Cn1cc(-c2ccc(-c3cncc4ccccc34)cc2)cn1", "Population Normal (%)", 96),
    ("CC(C)c1noc(N2CCC(COc3ccc(-c4ccc(S(C)(=O)=O)cc4)nc3)CC2)n1 [GSK-1292263]", "Population Normal (%)", 97),
    ("N#Cc1c(Oc2cccc(OS(=O)(=O)CCCC(F)(F)F)c2)cccc1C(F)(F)F", "Population Normal (%)", 96),
]

Each of the following entries comes with a recorded value; kindly state Population Normal (%) for each.
1. COc1ccccc1N1CCN(C[C@@H](C(=O)NC(C)(C)C)c2ccccc2)CC1.Cl.Cl
2. CCCCC(=O)N(Cc1ccc(-c2ccccc2-c2nnn[nH]2)cc1)[C@H](C(=O)O)C(C)C

97
98

Each of the following entries comes with a recorded value; kindly state Population Normal (%) for each.
1. CC(=O)Nc1cccc2c1c(Sc1ccc(Cl)cc1)c(C)n2CC(=O)O [AZD1981]
2. CN1CCN(c2cc(-c3ccccc3)nc(N)n2)CC1
3. O=C(CCCc1ccccc1)Nc1nc2ccccc2c(=O)s1
4. CC(/C=C1\SC(=S)N(CCCC(=O)Nc2ccc(C(=O)O)c(O)c2)C1=O)=C\c1ccccc1
5. Cc1c(CC(=O)O)c2cccnc2n1Cc1ccc(S(C)(=O)=O)cc1C(F)(F)F [FEVIPIPRANT]

1. 96
2. 97
3. 97
4. 96
5. 98

---

Kindly supply the reported Population Fragmented Nuclei (%) values for the records listed here.
System: HEK-293T
Assay: Multiplex assay against HEK293T
Assay type: toxicity, cell-based
Conditions: human, 48 h, 10 µM, compound concentration 10 uM, replicate 2
Numbers only, in %.

Answered examples (5):
# compound, target_entity, observed_result
measured = [
    ("COC[C@@H](c1ccc(C(F)(F)F)cc1)N1CCN(C2(C)CCN(C(=O)c3c(C)ncnc3C)CC2)C[C@@H]1C.O=C(O)/C=C\\C(=O)O [VICRIVIROC MALEATE]", "HEK-293T", 14),
    ("CC(C)c1noc(N2CCC(COc3ccc(-c4ccc(S(C)(=O)=O)cc4)nc3)CC2)n1 [GSK-1292263]", "HEK-293T", 13),
    ("CC(C)(C)c1cc(NC(=O)Nc2ccc(-c3cn4c(n3)sc3cc(OCCN5CCOCC5)ccc34)cc2)no1 [QUIZARTINIB]", "HEK-293T", 11),
    ("Cc1sc2c(c1C)C(c1ccc(Cl)cc1)=N[C@@H](CC(=O)NCCCCCCCCNC(=O)COc1cccc3c1C(=O)N(C1CCC(=O)NC1=O)C3=O)c1nnc(C)n1-2 (some centres not stated)", "HEK-293T", 15),
    ("Br.CS(=O)(=O)Nc1c(O)ccc2c1CCCC2C1=NCCN1 (configuration not stated)", "HEK-293T", 14),
]

Each of the following entries comes with a recorded value; kindly state Population Fragmented Nuclei (%) for each.
1. Cc1noc(-c2ccc(-c3ccc(CC(=O)O)cc3)cc2)c1NC(=O)O[C@H](C)c1ccccc1Cl
2. COc1cccc2c1c(NS(=O)(=O)c1ccc(Cl)s1)nn2Cc1cccc(CNC(=O)C(C)(C)O)c1

13
8

---

Kindly supply the reported Population Hoechst High Intensity Objects (%) values for the records listed here.
Test system: HEK-293T
Test: Multiplex assay against HEK293T
Assay type: toxicity, cell-based
Conditions: human, 48 h, 10 µM, compound concentration 10 uM, replicate 2
Numbers only, in %.

# compound, observed_result
rows = [
    ("CCCCCC(O)/C=C/[C@H]1C(=O)CC(O)C1C/C=C\\CCCC(=O)O (some centres undefined)", 3),
    ("Cc1sc2c(c1C)C(c1ccc(Cl)cc1)=N[C@@H](CC(=O)NCCCCCCCCNC(=O)COc1cccc3c1C(=O)N(C1CCC(=O)NC1=O)C3=O)c1nnc(C)n1-2 (some centres undefined)", 31),
    ("CN[C@@H](C)C(=O)N[C@H](C(=O)N1CCC[C@H]1C(=O)Nc1snnc1-c1ccccc1)C1CCCCC1", 21),
    ("N#Cc1cc(F)cc(-c2nc(-c3ccc(F)cn3)no2)c1", 4),
    ("Cc1noc(-c2ccc(-c3ccc(CC(=O)O)cc3)cc2)c1NC(=O)O[C@H](C)c1ccccc1Cl", 10),
]

Each of the following entries comes with a recorded value; kindly state Population Hoechst High Intensity Objects (%) for each.
1. CCCOc1ccc2[nH]cc(C3=CCNCC3)c2n1.Cl
2. CN(C)C(=O)Cn1cc(-c2ccc(-c3cncc4ccccc34)cc2)cn1
3. CC(/C=C1\SC(=S)N(CCCC(=O)Nc2ccc(C(=O)O)c(O)c2)C1=O)=C\c1ccccc1

5
8
5

Each of the following entries comes with a recorded value; kindly state Population Hoechst High Intensity Objects (%) for each.
1. Cl.N=C(N)NC(=O)Cc1c(Cl)cccc1Cl [GUANFACINE HYDROCHLORIDE]
2. O=C1[C@H](Cc2ccc(O)cc2)N2C(=O)CCN(C(=O)NCc3ccccc3)[C@H]2CN1Cc1cccc2ccccc12
3. CCCCC1=NC2(CCCC2)C(=O)N1Cc1ccc(-c2ccccc2-c2nnn[nH]2)cc1
4. CC(=O)Nc1cccc2c1c(Sc1ccc(Cl)cc1)c(C)n2CC(=O)O
5. Cc1cccc(NC(=O)CN2CCC(c3ccccn3)CC2)c1.Cl.Cl

[10, 20, 3, 4, 2]

---

Kindly supply the reported Population Hoechst High Intensity Objects (%) values for the records listed here.
System: U2OS
Assay: Multiplex assay against U2OS
Assay type: toxicity, cell-based
Conditions: human, 24 h, 10 µM, compound concentration 10 uM, replicate 2
One number for each entry, in %.

Answered examples (5):
# compound, unit_of_measure, observed_result
records = [
    ("Cl.N=C(N)NC(=O)Cc1c(Cl)cccc1Cl [GUANFACINE HYDROCHLORIDE]", "%", 2),
    ("O=C(CCCc1ccccc1)Nc1nc2ccccc2c(=O)s1", "%", 1),
    ("O=C(NCCN1CCC(n2c(=O)[nH]c3cc(Cl)ccc32)CC1)c1ccc(F)cc1 [HALOPEMIDE]", "%", 3),
    ("CC(C)c1noc(N2CCC(COc3ccc(-c4ccc(S(C)(=O)=O)cc4)nc3)CC2)n1", "%", 2),
    ("CN(C)C(=O)Cn1cc(-c2ccc(-c3cncc4ccccc34)cc2)cn1", "%", 2),
]

Each of the following entries comes with a recorded value; kindly state Population Hoechst High Intensity Objects (%) for each.
1. Cc1c(CC(=O)O)c2cccnc2n1Cc1ccc(S(C)(=O)=O)cc1C(F)(F)F
2. Br.CS(=O)(=O)Nc1c(O)ccc2c1CCCC2C1=NCCN1 (stereo not given)

1: 1; 2: 0

Each of the following entries comes with a recorded value; kindly state Population Hoechst High Intensity Objects (%) for each.
1. Cc1cnc(-c2cc(N3CCN(C(=O)CCS(C)(=O)=O)CC3)ncc2Cl)c(C)c1
2. CCCOc1ccc2[nH]cc(C3=CCNCC3)c2n1.Cl
3. Cl.NCCc1ccc(O)c(O)c1 [DOPAMINE HYDROCHLORIDE]

1: 0; 2: 0; 3: 0
